molecular target: Yck2 (Candida albicans); assay: purified enzyme kinase assay; also NanoBRET ([…]) and MIB/MS competition; assay type: biochemical
Sequence (A0A1D8PKB4 entry or part of it): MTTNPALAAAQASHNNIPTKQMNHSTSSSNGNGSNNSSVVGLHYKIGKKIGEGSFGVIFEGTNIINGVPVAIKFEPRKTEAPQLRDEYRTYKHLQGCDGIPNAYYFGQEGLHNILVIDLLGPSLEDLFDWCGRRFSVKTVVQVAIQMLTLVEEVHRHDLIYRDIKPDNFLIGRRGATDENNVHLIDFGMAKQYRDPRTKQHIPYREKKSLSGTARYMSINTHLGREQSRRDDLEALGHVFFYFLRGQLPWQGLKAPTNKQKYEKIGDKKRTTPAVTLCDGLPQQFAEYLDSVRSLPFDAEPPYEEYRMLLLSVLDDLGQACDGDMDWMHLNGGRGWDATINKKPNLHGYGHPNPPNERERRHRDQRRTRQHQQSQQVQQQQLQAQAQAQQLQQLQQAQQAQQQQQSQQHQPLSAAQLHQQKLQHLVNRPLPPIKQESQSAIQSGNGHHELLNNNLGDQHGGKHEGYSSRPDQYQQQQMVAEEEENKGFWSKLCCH
VALUE_TYPE: IC50 (µM)
Give bare numbers, in µM.

I looked up Cc1n[nH]c2ccc(-c3cc(OC[C@@H](N)Cc4ccccc4)cnc3-c3ccoc3)cc12 [GSK, GSK507358A] and its IC50 for Yck2 (Candida albicans) was 0.16

====

biological target: Yck2 (Candida albicans); experiment: purified enzyme kinase assay; also NanoBRET ([…]); assay type: biochemical
VALUE_TYPE: IC50
Please state the number and follow it with the unit.

# IC50 (compound: CC(=O)c1cnc2ccc(-c3cc(Cl)c(O)c(Cl)c3)nc2c1N[C@H]1CC[C@H](CN(C)C)CC1 ) is 0.13 µM

====

Molecular target: CK1α (Homo sapiens, UniProt P48729)
Construct: gene CSNK1A1
Sequence (P48729 2-337): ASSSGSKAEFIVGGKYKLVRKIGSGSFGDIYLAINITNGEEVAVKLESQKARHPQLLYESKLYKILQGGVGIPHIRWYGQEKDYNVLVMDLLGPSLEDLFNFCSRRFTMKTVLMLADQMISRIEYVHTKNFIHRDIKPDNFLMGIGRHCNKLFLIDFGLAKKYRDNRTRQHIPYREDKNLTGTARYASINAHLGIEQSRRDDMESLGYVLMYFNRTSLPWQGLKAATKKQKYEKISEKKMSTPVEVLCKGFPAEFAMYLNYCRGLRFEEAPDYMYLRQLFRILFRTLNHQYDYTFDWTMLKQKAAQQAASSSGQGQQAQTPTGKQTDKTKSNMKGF
Assay: purified enzyme kinase assay
Format: biochemical
VALUE_TYPE: IC50 (µM)
Answers are plain numbers, in µM.

# IC50 (compound: CN1CCC(F)(Cn2cnc(-c3ccc(F)cn3)c2-c2ccnc3[nH]ccc23)CC1 [MU1742] ) is 0.014
